molecular target: Nav 1.7 (Homo sapiens); construct: expressed in transfected cells; test: Whole-cell voltage clamp electrophysiology, automated patch clamp (marker c in Table of Examples); format: cell-based; conditions: marker c: Automated patch clamp data; read-out: Nav 1.7 activity
pIC50: −log10 of the molar value.
MEASURED QUANTITY: pIC50

INSERT INTO assay_data (molecule, assayed_target, numeric_value) VALUES
  ('CN(c1ccccc1)c1nc(N)nc(-c2noc(-c3cnco3)n2)n1', 'Nav 1.7 (Homo sapiens)', 5.68),
  ('Cc1ccc(-c2nc(-c3nc(N)nc(N(C)c4ccccc4)n3)no2)cc1', 'Nav 1.7 (Homo sapiens)', 5.86),
  ('FC(F)(F)CNc1nc(Nc2ccccc2)nc(-c2noc(-c3ccc(OCC(F)(F)F)nc3)n2)n1', 'Nav 1.7 (Homo sapiens)', 5.83),
  ('CCN(c1ccccc1)c1nc(N)nc(-c2noc(-c3cc(F)ccc3OC)n2)n1', 'Nav 1.7 (Homo sapiens)', 6.24),
  ('CN(c1ccccc1)c1nc(N)nc(-c2noc(C3CCCCO3)n2)n1 (centres unmarked)', 'Nav 1.7 (Homo sapiens)', 5.34);

(I) COCC1CCN(c2nc(-c3nc(N)nc(N(C)c4ccccc4)n3)no2)CC1
(II) Cc1ccsc1-c1nc(-c2nc(N)nc(N(C)c3ccccc3)n2)no1
(III) CN(c1ccccc1)c1nc(N)nc(-c2noc(-c3ncccc3OCC(F)(F)F)n2)n1
(IV) Cc1ccc(-c2nc(-c3nc(N)nc(N(C)c4cccc(F)c4)n3)no2)o1
Sort the 4 molecules by pIC50; largest first, smallest last. Sort the labels as requested; that list is your answer.
II, III, IV, I

(P) Cc1cccc(-c2nc(-c3nc(N)nc(N(C)c4ccccc4)n3)no2)c1
(Q) COc1cccnc1-c1nc(-c2nc(N)nc(N(C)c3ccccc3)n2)no1
(R) CCN(c1ccccc1)c1nc(N)nc(-c2noc(-c3ccc(F)cc3Cl)n2)n1
Hey, quick one: sort these by pIC50, largest value first please. The response must list the labels following the requested ordering.
R, Q, P
(R: 7.08, Q: 6.40, P: 6.02)

* * *

biological target: Nav 1.7 (Homo sapiens, UniProt Q15858); construct: expressed in transfected cells; assay: Whole-cell voltage clamp electrophysiology, IonWorks Quattro (marker a in Table of Examples); type: cell-based; conditions: marker a: IonWork Quattro data; read-out: Nav 1.7 activity
Sequence (Q15858 whole entry): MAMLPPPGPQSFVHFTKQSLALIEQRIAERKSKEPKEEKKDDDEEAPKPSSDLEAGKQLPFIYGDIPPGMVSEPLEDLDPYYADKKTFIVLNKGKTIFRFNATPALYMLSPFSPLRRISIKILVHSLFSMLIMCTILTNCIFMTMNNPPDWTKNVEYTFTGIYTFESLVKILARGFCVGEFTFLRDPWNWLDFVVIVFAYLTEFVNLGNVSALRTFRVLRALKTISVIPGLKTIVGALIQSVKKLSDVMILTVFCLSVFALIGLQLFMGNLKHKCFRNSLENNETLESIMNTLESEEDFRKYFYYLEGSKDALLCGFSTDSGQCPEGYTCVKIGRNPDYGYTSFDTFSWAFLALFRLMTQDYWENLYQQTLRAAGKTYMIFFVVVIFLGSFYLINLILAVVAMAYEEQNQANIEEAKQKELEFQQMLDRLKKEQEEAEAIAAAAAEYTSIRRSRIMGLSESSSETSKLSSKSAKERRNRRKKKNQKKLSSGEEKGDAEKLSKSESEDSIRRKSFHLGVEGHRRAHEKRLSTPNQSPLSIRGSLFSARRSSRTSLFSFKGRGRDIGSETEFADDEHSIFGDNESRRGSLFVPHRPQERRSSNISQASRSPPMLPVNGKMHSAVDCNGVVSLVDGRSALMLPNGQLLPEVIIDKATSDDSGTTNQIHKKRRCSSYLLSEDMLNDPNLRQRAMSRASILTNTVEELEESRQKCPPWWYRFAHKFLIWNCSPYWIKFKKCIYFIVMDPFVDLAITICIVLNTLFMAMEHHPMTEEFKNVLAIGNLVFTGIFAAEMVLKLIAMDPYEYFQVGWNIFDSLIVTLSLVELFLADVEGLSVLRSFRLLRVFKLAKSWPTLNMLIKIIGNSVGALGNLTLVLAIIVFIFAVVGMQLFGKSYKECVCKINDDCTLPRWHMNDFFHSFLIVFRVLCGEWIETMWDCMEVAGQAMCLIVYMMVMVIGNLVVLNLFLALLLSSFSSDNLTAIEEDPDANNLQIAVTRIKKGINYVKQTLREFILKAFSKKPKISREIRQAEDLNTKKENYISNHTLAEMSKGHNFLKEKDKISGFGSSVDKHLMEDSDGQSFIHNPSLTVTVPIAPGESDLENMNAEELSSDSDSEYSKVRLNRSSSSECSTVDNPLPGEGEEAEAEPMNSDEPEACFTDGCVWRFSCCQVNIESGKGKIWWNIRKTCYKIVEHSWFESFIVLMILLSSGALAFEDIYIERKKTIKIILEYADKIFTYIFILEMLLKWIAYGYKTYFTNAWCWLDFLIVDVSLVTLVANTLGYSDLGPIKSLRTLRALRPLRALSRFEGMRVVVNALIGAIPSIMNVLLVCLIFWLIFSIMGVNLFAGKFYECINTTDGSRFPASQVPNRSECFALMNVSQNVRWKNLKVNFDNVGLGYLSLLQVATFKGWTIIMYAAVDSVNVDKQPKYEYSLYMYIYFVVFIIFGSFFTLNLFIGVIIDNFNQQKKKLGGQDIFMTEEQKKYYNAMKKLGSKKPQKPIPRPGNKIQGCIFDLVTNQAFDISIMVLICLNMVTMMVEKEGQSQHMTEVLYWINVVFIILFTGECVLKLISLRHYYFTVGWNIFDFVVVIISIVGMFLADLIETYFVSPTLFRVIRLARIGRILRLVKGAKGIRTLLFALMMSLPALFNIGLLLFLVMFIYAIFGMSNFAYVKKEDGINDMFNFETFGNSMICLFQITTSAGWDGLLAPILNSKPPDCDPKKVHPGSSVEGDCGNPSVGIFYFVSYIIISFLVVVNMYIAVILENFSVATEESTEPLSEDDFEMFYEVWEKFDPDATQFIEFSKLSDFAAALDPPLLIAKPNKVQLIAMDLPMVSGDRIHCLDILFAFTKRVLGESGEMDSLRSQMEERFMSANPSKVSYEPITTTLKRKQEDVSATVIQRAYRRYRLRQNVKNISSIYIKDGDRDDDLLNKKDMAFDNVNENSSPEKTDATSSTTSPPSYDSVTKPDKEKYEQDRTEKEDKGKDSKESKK
MEASURED QUANTITY: IC50

Here are 5 molecules together with their reported answers.
INSERT INTO measurements (cpd_smiles, result) VALUES
  ('COc1cccc(-c2nc(-c3nc(N)nc(N(C)c4ccccc4)n3)no2)c1', '< 0.5 µM'),
  ('Nc1nc(Nc2cccc(Cl)c2)nc(-c2noc(-c3ccco3)n2)n1', '< 0.5 µM'),
  ('CN(c1nc(N)nc(-c2noc(-c3ccco3)n2)n1)c1cccc(F)c1F', '< 0.5 µM'),
  ('CN(c1nc(N)nc(-c2noc(-c3ccco3)n2)n1)c1ccccc1Cl', '< 5 µM'),
  ('Cc1ccc(-c2nc(-c3nc(N)nc(N(C)c4ccccc4)n3)no2)o1', '0.061 µM');

Need IC50 of Nc1nc(-c2noc(-c3ccco3)n2)nc(N2CCc3ccccc32)n1 , thanks.
< 1 µM

For the molecule Cc1ccccc1N(C)c1nc(N)nc(-c2noc(-c3ccco3)n2)n1 , what IC50 is on record?
< 5 µM

Recorded IC50 for CN(Cc1ccccc1)c1nc(N)nc(-c2noc(-c3ccco3)n2)n1 , please?
< 3 µM

* * *

target: Nav 1.7 (Homo sapiens, UniProt Q15858); construct: expressed in transfected cells; test: Whole-cell voltage clamp electrophysiology, automated patch clamp (marker c in Table of Examples); assay type: cell-based; conditions: marker c = Automated patch clamp data; read-out: Nav 1.7 activity
MEASURED QUANTITY: IC50 (nM)

Known results for compounds:
INSERT INTO results (compound, measurement_unit, numeric_value) VALUES
  ('COCCN(c1ccccc1)c1nc(N)nc(-c2noc(N3CC(Oc4ccccc4)C3)n2)n1 [Example 436]', 'nM', 171),
  ('CN(c1ccccc1)c1nc(N)nc(-c2noc(-c3ccc(Cl)nc3)n2)n1 [Example 418]', 'nM', 1640),
  ('CN(c1ccccc1)c1nc(N)nc(-c2noc(N3CC(COCCC(F)(F)F)C3)n2)n1 [Example 496]', 'nM', 1220),
  ('Nc1nc(Nc2cccc(F)c2)nc(-c2noc(NC3CCCC3)n2)n1 [Example 235]', 'nM', 1690),
  ('CN(c1ccccc1)c1nc(N)nc(-c2noc(-c3ccc(C(=O)NCC(F)(F)F)nc3)n2)n1 [Example 280]', 'nM', 513);

(1) COC(=O)c1ccc(-c2nc(-c3nc(N)nc(N(C)c4ccccc4)n3)no2)cn1 [Example 279]
(2) Nc1nc(Nc2ccccc2)nc(-c2noc(C(=O)N3CCC(SCC(F)(F)F)CC3)n2)n1 [Example 466]
(3) CN(c1nc(N)nc(-c2noc(-c3ccc(OCC(F)(F)F)nc3)n2)n1)c1ccc(F)cc1F [Example 417]
Given 3 compounds, produce a descending ranking by IC50. Reply: labels, ordered per the request.
2, 1, 3
(2: 740 nM, 1: 444 nM, 3: 28 nM)

* * *

biological target: Nav 1.7 (Homo sapiens, UniProt Q15858); construct: expressed in transfected cells; assay: Whole-cell voltage clamp electrophysiology, automated patch clamp (marker c in Table of Examples); assay type: cell-based; details: marker c = Automated patch clamp data; read-out: Nav 1.7 activity
MEASURED QUANTITY: IC50 (nM)

Some solved entries appear below for comparison.
INSERT INTO results (compound, numeric_value) VALUES
  ('Nc1nc(Nc2ccccc2)nc(-c2noc(C(=O)N3CCC(COCC(F)(F)F)CC3)n2)n1', 1640),
  ('CN(c1ccccc1)c1nc(N)nc(-c2noc(-c3ccnn3C)n2)n1', 4560);

(P) CN(c1ccccc1)c1nc(N)nc(-c2noc(-c3ccnnc3)n2)n1
(Q) CC(C)(C)OC(=O)N1CCC(c2nc(-c3nc(N)nc(Nc4ccccc4)n3)no2)CC1
# min-compare on IC50 between P and Q Lab note: record the label of whichever item you select.
Q
(Q: 603 nM, P: 2920 nM)

(I) CC(C)SC1CCN(c2nc(-c3nc(N)nc(N(C)c4ccccc4)n3)no2)CC1
(II) CC(C)OC[C@@H]1[C@H]2CN(c3nc(-c4nc(N)nc(N(C)c5ccccc5)n4)no3)C[C@@H]12
(III) CCCS(=O)(=O)N1CCC(c2nc(-c3nc(N)nc(N(C)c4ccccc4)n3)no2)C1 (centres unmarked)
(IV) CN(c1ccccc1)c1nc(N)nc(-c2noc(-c3ccc(OCC(F)(F)F)cn3)n2)n1
Sort low-to-high on IC50, please. Reply with the labels, ordered as the question asks.
IV, I, II, III
(IV: 818 nM, I: 2060 nM, II: 3940 nM, III: 8590 nM)

* * *

biological target: Nav 1.7 (Homo sapiens, UniProt Q15858); construct: expressed in transfected cells; assay: Whole-cell voltage clamp electrophysiology, automated patch clamp (marker c in Table of Examples); format: cell-based; conditions: marker c = Automated patch clamp data; read-out: Nav 1.7 activity
MEASURED QUANTITY: IC50 (µM)

Examples with answers:
INSERT INTO measurements (compound, numeric_value) VALUES
  ('Nc1nc(Nc2ccccc2)nc(-c2noc(C(=O)N3CCC(OCC4CC4)CC3)n2)n1', 3.61),
  ('CN(c1ccccc1)c1nc(N)nc(-c2noc(-c3n[nH]cc3Cl)n2)n1', 0.548),
  ('Nc1nc(Nc2cccc(F)c2)nc(-c2noc(C(=O)N3CCCC3)n2)n1', 0.241);

(I) CN(c1ccccc1)c1nc(N)nc(-c2noc(C3CCN(S(=O)(=O)C4CCCC4)CC3)n2)n1
(II) CCC(C)S(=O)(=O)N1CCC(c2nc(-c3nc(N)nc(Nc4ccccc4)n3)no2)CC1 (centres unmarked)
// which entry has the larger IC50 value, I or II ? Selection: enter the item's label.
II

* * *

target: Nav 1.7 (Homo sapiens, UniProt Q15858); construct: expressed in transfected cells; experiment: Whole-cell voltage clamp electrophysiology, automated patch clamp (marker c in Table of Examples); assay type: cell-based; settings: marker c = Automated patch clamp data; read-out: Nav 1.7 activity
MEASURED QUANTITY: IC50 (nM)

# annotated cases, reported IC50 shown
INSERT INTO measurements (compound, assayed_target, measurement_unit, numeric_value) VALUES
  ('CN(c1ccccc1)c1nc(N)nc(-c2noc(C3CCC(NC(=O)C(F)(F)F)CC3)n2)n1 (stereo not drawn)', 'Nav 1.7 (Homo sapiens, UniProt Q15858)', 'nM', 5950),
  ('CN(c1ccccc1)c1nc(N)nc(-c2noc(-c3cnccn3)n2)n1', 'Nav 1.7 (Homo sapiens, UniProt Q15858)', 'nM', 8910),
  ('Nc1nc(Nc2cccc(Cl)c2)nc(-c2noc(-c3ccccn3)n2)n1', 'Nav 1.7 (Homo sapiens, UniProt Q15858)', 'nM', 386),
  ('CC(Oc1ccc(-c2nc(-c3nc(N)nc(N(C)c4ccccc4)n3)no2)cn1)C(F)(F)F (stereo not drawn)', 'Nav 1.7 (Homo sapiens, UniProt Q15858)', 'nM', 55),
  ('CN(c1ccccc1)c1nc(N)nc(-c2noc(N3C[C@@H]4[C@@H](COCC5CC5)[C@@H]4C3)n2)n1', 'Nav 1.7 (Homo sapiens, UniProt Q15858)', 'nM', 2660),
  ('Nc1nc(Nc2ccccc2)nc(-c2noc(C(=O)NC3CCCC3)n2)n1', 'Nav 1.7 (Homo sapiens, UniProt Q15858)', 'nM', 2510),
  ('CN(c1ccccc1)c1nc(N)nc(-c2noc(-c3ncccc3F)n2)n1', 'Nav 1.7 (Homo sapiens, UniProt Q15858)', 'nM', 647),
  ('CN(c1ccccc1)c1nc(N)nc(-c2noc(N3CCC(c4ccccc4)CC3)n2)n1', 'Nav 1.7 (Homo sapiens, UniProt Q15858)', 'nM', 1280),
  ('CCCS(=O)(=O)N1CC(c2nc(-c3nc(N)nc(N(C)c4ccccc4)n3)no2)C1', 'Nav 1.7 (Homo sapiens, UniProt Q15858)', 'nM', 8050),
  ('CN(c1ccccc1)c1nc(N)nc(-c2noc(-c3ncccc3C(=O)OCC3CC3)n2)n1', 'Nav 1.7 (Homo sapiens, UniProt Q15858)', 'nM', 232);

(a) Nc1nc(Nc2ccccc2)nc(-c2noc(C(=O)NC3CCc4ccccc43)n2)n1 (stereo not drawn)
(b) CC(C)S(=O)(=O)N1CC(c2nc(-c3nc(N)nc(N(C)c4ccccc4)n3)no2)C1
(c) CN(c1ccccc1)c1nc(N)nc(-c2noc(N3CC[C@@H](Oc4ccccc4)C3)n2)n1
(d) Cc1ccc(-c2nc(-c3nc(N)nc(N(C)c4ccccc4)n3)no2)cn1
// smallest IC50 at index 0, largest at the end Give the labels in the order requested.
c, d, a, b

meta.source: patent US8895733B2
